All values here come from ChEMBL document CHEMBL1145813.

TEST_NAME: Apparent lipophilicity was determined
PROPERTY_MEASURED: chromatographic logD

SMILES_REPRESENTATION	chromatographic logD
CNc1ccc(-c2nc3ccc(OC)cc3s2)cc1	2.6

A. CN(C)c1ccc(-c2nc3ccc(Br)cc3s2)cc1
B. COc1ccc2nc(-c3ccc(N)cc3)sc2c1
Q: In terms of reported chromatographic logD, does A or B have the smaller number? Lab note: record the label of whichever item you select.
A: B
(B: 1.9, A: 4.4)

----------
TARGET_OR_TEST_SYSTEM: Amyloid-beta precursor protein (Homo sapiens, UniProt P05067)
Sequence (P05067 whole entry): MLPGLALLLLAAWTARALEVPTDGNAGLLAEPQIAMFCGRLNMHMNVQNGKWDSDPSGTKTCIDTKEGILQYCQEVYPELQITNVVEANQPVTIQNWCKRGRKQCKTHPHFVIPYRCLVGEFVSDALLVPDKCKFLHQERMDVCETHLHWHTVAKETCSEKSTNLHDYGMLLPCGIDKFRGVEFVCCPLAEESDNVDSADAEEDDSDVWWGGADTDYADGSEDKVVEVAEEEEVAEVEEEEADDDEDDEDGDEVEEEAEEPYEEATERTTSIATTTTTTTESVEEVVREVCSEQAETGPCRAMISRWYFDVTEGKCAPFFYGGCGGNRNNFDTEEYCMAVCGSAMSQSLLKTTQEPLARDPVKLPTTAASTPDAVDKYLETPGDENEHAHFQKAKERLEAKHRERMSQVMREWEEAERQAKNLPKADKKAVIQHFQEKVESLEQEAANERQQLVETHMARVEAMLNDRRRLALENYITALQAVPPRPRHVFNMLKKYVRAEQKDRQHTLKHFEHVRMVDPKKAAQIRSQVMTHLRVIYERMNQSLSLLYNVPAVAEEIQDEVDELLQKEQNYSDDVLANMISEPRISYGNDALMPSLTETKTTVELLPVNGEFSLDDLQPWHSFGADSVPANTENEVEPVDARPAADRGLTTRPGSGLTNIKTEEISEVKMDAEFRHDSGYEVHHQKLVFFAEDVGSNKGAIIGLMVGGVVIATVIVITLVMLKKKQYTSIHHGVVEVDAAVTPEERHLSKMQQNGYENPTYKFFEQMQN
TEST_NAME: Binding affinity for Amyloid beta 1-40 aggregates in competition with [N-methyl-3H] BTA-1.
PROPERTY_MEASURED: Ki (nM)

// solved cases for Ki follow
SMILES_REPRESENTATION	TARGET_OR_TEST_SYSTEM	UNIT_NAME	MEASURED_VALUE
CNc1ccc(-c2nc3ccc(OC)cc3s2)cc1	Amyloid-beta precursor protein (Homo sapiens, UniProt P05067)	nM	4.9
COc1ccc2nc(-c3ccc(N)cc3)sc2c1	Amyloid-beta precursor protein (Homo sapiens, UniProt P05067)	nM	7
CN(C)c1ccc(-c2nc3ccc(Br)cc3s2)cc1	Amyloid-beta precursor protein (Homo sapiens, UniProt P05067)	nM	2.9
Nc1ccc(-c2nc3ccc(Br)cc3s2)cc1	Amyloid-beta precursor protein (Homo sapiens, UniProt P05067)	nM	7.2
CN(C)c1ccc(-c2nc3ccc(C#N)cc3s2)cc1	Amyloid-beta precursor protein (Homo sapiens, UniProt P05067)	nM	11
CNc1ccc(-c2nc3ccc(C#N)cc3s2)cc1	Amyloid-beta precursor protein (Homo sapiens, UniProt P05067)	nM	8.6
CNc1ccc(-c2nc3ccc(Br)cc3s2)cc1	Amyloid-beta precursor protein (Homo sapiens, UniProt P05067)	nM	1.7
Nc1ccc(-c2nc3ccccc3s2)cc1	Amyloid-beta precursor protein (Homo sapiens, UniProt P05067)	nM	37

1. Cc1ccc2nc(-c3ccc(N)cc3)sc2c1
2. CN(C)c1ccc(-c2nc3ccc(O)cc3s2)cc1
3. Nc1ccc(-c2nc3ccc(O)cc3s2)cc1
4. COc1ccc2nc(-c3ccc(N(C)C)cc3)sc2c1
Q: Rank ascending by Ki. # output: labels, in the requested order
A: 4, 2, 1, 3

----------
TEST_NAME: Percent injected dose per gram of compound to Swiss-Webster mice brain was measured after 30 min of intravenous injection
Format: functional, Mus musculus
Quick reference: ID of the listed items.
Quick reminder: number only, in %, skip the unit.

MOLECULE	PROPERTY_MEASURED	UNIT_NAME	MEASURED_VALUE
COc1ccc2nc(-c3ccc(N(C)C)cc3)sc2c1	ID	%	0.14
CNc1ccc(-c2nc3ccccc3s2)cc1	ID	%	0.057
CNc1ccc(-c2nc3ccc(OC)cc3s2)cc1	ID	%	0.1
CNc1ccc(-c2nc3ccc(C#N)cc3s2)cc1	ID	%	0.063
CN(C)c1ccc(-c2nc3ccc(O)cc3s2)cc1	ID	%	0.1

Q: Indicate its recorded ID; the molecule in question is CNc1ccc(-c2nc3ccc(C)cc3s2)cc1
A: 0.083

Q: Indicate its recorded ID; the molecule in question is CN(C)c1ccc(-c2nc3ccccc3s2)cc1
A: 0.078

Q: Indicate its recorded ID; the molecule in question is CN(C)c1ccc(-c2nc3ccc(C#N)cc3s2)cc1
A: 0.097

Q: Indicate its recorded ID; the molecule in question is CNc1ccc(-c2nc3ccc(O)cc3s2)cc1 [PITTSBURGH COMPOUND B UNLABELLED]
A: 0.018

Q: Indicate its recorded ID; the molecule in question is Cc1ccc2nc(-c3ccc(N(C)C)cc3)sc2c1
A: 0.15

Q: Indicate its recorded ID; the molecule in question is CNc1ccc(-c2nc3ccc(Br)cc3s2)cc1
A: 0.12

Q: Indicate its recorded ID; the molecule in question is COc1ccc2nc(-c3ccc(N)cc3)sc2c1
A: 0.084

Q: Indicate its recorded ID; the molecule in question is CN(C)c1ccc(-c2nc3ccc(Br)cc3s2)cc1
A: 0.11
